Assay: self-splicing fitness, log relative to wild type (ln ratio); higher = more splicing; Tetrahymena group I intron in knt gene, E. coli kanamycin selection, DiMSum; sequences stand for … in CUCUCU…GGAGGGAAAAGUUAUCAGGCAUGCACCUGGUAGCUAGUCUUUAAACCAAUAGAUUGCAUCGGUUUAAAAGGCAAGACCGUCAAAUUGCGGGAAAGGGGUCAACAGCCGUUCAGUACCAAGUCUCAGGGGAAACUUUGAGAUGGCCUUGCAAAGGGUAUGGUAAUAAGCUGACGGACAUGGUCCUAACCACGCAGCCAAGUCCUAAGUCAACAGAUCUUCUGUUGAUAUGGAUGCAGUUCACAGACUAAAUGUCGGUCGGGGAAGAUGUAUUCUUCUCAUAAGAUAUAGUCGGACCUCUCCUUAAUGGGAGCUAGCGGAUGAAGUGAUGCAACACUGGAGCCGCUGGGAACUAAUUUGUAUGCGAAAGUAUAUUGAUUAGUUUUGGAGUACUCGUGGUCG;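 further: selection with 25 µg/mL kanamycin versus none on LB agar overnight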
Details: 30 °C
Attribute Measured: self-splicing fitness (ln)

Below: 4 sequences and their reported self-splicing fitness (ln).
GAAGAGCAAUAUUACGCGAA; -3.32
CAUUAGCAAUAUUACGCUUG; -2.46
UAGCAGCAAUAUUACGGCUG; -3.72
AGCUAGCAAUAUUACGAUGA; -2.51

Now for another entry.
Reported self-splicing fitness (ln) for ACGUAGCAAUAUUACGGCAU was -1.31

---

Experiment: self-splicing fitness, log relative to wild type (ln ratio); higher = more splicing; Tetrahymena group I intron in knt gene, E. coli kanamycin selection, DiMSum; sequences stand for … in CUCUCU…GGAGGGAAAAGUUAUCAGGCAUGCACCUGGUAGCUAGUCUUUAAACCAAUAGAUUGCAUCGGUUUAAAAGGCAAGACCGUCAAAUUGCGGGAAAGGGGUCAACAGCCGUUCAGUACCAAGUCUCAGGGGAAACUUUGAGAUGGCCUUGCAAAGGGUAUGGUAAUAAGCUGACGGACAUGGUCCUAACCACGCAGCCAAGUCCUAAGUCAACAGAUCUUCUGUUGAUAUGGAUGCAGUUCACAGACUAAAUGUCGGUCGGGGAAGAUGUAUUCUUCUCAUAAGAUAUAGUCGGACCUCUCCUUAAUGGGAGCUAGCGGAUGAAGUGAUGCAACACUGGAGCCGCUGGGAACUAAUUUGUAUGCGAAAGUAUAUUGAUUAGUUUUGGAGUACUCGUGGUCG
Conditions: 30 °C
Classification field: enter Yes for self-splicing fitness (ln) values not below -3, No for values below it.

Examples from the recorded data:
AGCAAGCAAUAUUACGGUCU; Yes
ACCCAGCAAUAUUACGGUAU; Yes
AAUAAGCAAUAUUACGUUGU; No

Incoming: Quick check, self-splicing fitness (ln) >= -3? UCUAAGCAAUAUUACGCACG
Outgoing: Yes

Incoming: Quick check, self-splicing fitness (ln) >= -3? CUUGAGCAAUAUUACGGUCA
Outgoing: Yes

Incoming: Quick check, self-splicing fitness (ln) >= -3? CAUCAGCAAUAUUACGACUC
Outgoing: Yes

Incoming: Quick check, self-splicing fitness (ln) >= -3? AUAUAGCAAUAUUACGGACA
Outgoing: Yes

---

Test: self-splicing fitness, log relative to wild type (ln ratio); higher = more splicing; Tetrahymena group I intron in knt gene, E. coli kanamycin selection, DiMSum; sequences stand for … in CUCUCU…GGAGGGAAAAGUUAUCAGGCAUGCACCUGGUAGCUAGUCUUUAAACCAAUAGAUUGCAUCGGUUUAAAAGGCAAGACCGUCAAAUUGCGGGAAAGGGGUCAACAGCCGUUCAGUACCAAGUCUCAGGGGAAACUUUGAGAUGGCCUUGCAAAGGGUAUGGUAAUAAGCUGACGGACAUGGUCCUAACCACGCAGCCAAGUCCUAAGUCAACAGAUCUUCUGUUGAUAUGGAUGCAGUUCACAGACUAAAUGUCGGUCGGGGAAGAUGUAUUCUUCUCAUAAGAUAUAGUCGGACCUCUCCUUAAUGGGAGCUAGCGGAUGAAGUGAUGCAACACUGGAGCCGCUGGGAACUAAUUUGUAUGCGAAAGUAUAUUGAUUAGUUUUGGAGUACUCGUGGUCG
Conditions: 30 °C
Attribute Measured: self-splicing fitness (ln)
One number for each entry.

Below: 4 sequences and their reported self-splicing fitness (ln).
UACUAGCAAUAUUACGAUUU; -2.36
ACACAGCAAUAUUACGGACC; -1.99
AGUAAGCAAUAUUACGCGCG; -1.05
CCAAAGCAAUAUUACGAAGA; -3.61

Reported self-splicing fitness (ln) for GCGGAGCAAUAUUACGAUUA was -2.93
